src = ChEMBL document CHEMBL3988442

# Tested on: Plasmodium falciparum
# experimentalDetails: Calibr Malaria Delayed Death Assay SOP
# Format: functional, organism-based
# Set-up: scale not given: in the data most compounds retested in dose-response had high values
# assaySetup: concentration 4.99e-06 (unit not given; other assays of the set use mol/L)
In all, about 38,000 compounds went through this assay and about 1,200 (3.2%) showed an effect of 50% or more. The median lay at about -58%. The full list was thinned out, with strong results kept by preference.
In plain terms, low Percent Effect, meaning strictly below -20%, gives t, and everything else gives f.

Some entries whose results are on file:
COc1ccc(CN2CCCC(Cn3nc(C)nc3C)C2)cc1F (centres undefined)    f
Cc1[nH]c(=O)[nH]c(=O)c1CN1CCCC(CCc2ccc(F)c(F)c2)C1 (centres undefined)    t
Cn1cc(CN2CCCC(CCc3ccccc3C(F)(F)F)C2)cn1 (centres undefined)    f
Cc1ccc2nc(CN3CCC(O)(CN4CCCC4)CC3)cc(O)c2c1    t
CCOCC1CN(C(=O)N2CCCC2)Cc2cnn(CC)c21 (centres undefined)    t

Query :: Percent Effect under -20%? Item: OC1(CN2CCCC2)CCCN(Cc2cnc(-c3ccco3)nc2)C1 (centres undefined)
Result :: t

Query :: Percent Effect under -20%? Item: Cn1ccnc1CCNC(=O)C1CCCN(Cc2cccc(F)c2)C1 (centres undefined)
Result :: f

Query :: Percent Effect under -20%? Item: CN(C)C1(CNC(=O)c2c(O)cc(Cl)cc2Cl)CCOCC1
Result :: t

----------
# Test system: Plasmodium falciparum
# experimentalDetails: Calibr Malaria Delayed Death Assay SOP
# Type: functional, organism-based
# Parameters: scale not given: in the data most compounds retested in dose-response had high values
# assaySetup: concentration 4.99e-06 (unit not given; other assays of the set use mol/L)
About 1,200 (3.2%) of roughly 38,000 compounds showed an effect of 50% or more. The median lay at about -58%. Only a selection was taken, and strong results are over-represented in it overall.
Listed below: Percent Effect values for each entry.
The reply should contain only the number, in %.

Guide cases for Percent Effect, answers given:
CC(C)CC(Cc1cccc(Br)c1)C(=O)O (centres undefined)    -132.5
Cc1nnc(N2CC[C@@H](OCC3CC3)[C@@H](Cc3ccccc3)C2)s1.O=C(O)C(F)(F)F    84.3
N#Cc1ccc(NCC(O)c2ccco2)c(C(F)(F)F)c1 (centres undefined)    -33.98
Cc1nc(CN2CC[C@@H](OCC3CC3)[C@@H]2Cc2cccnc2)cs1.O=C(O)C(F)(F)F.O=C(O)C(F)(F)F    6.851

Query :: Returns the measured Percent Effect for the input compound. Input: O=C(c1ccsc1)N1CCC2(CC1)CCN(S(=O)(=O)C1CC1)CC2
Result :: 5.88

Query :: Returns the measured Percent Effect for the input compound. Input: Cn1cc(N2CC3(CCN(Cc4cccnc4)CC3)OCC2=O)cn1.O=C(O)C(F)(F)F.O=C(O)C(F)(F)F
Result :: -71.74

Query :: Returns the measured Percent Effect for the input compound. Input: Cn1ccnc1C(=O)N[C@@H]1CN(Cc2ccc(F)cc2)[C@@H]2CCCO[C@@H]21.O=C(O)C(F)(F)F
Result :: -85.57

Query :: Returns the measured Percent Effect for the input compound. Input: Cc1ccccc1N1CCN(CCS(=O)(=O)c2ccc(Br)cc2)CC1
Result :: -132.7

Query :: Returns the measured Percent Effect for the input compound. Input: Cc1nc(CN2CC[C@H](OCC3CC3)[C@@H]2Cc2cccnc2)cs1.O=C(O)C(F)(F)F.O=C(O)C(F)(F)F
Result :: 60.39
